measurement_target: Aurora B (Homo sapiens, UniProt Q96GD4)
Construct: cell lysates from Jurkat cells (ATCC TIB-152) used; endogenous in cells; host or cells: Jurkat cells (ATCC TIB-152), treated with pervanadate
Sequence (Q96GD4 whole entry): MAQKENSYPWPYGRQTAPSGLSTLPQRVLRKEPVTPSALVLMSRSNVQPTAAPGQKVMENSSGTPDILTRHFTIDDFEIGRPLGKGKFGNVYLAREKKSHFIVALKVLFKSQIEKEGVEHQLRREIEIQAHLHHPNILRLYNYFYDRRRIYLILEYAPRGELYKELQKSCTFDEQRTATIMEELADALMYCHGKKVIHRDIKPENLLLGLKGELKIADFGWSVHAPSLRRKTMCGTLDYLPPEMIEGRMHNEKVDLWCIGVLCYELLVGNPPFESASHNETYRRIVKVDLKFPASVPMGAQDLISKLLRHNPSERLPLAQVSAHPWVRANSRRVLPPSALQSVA
assay_overview: Kinobeads assay, Aurora B
Assay type: binding
quantity_kind: JAK3/AurB Fold Selectivity

Query: JAK3/AurB Fold Selectivity; subject: Cn1cc(Nc2ncc3cnn(Cc4cccc(N5CCC6(COC6)C5)c4)c3n2)cn1
10-50 Fold

Please report the recorded JAK3/AurB Fold Selectivity for OCCn1cc(Nc2ncc3cnn(Cc4cc(N5CCNCC5)cc(F)c4F)c3n2)cn1 .
3-10 Fold

Entry Cn1cc(-c2cccc(Cn3ncc4cnc(Nc5cnn(CCO)c5)nc43)c2F)cn1 : reported JAK3/AurB Fold Selectivity = ?
10-50 Fold

// lookup JAK3/AurB Fold Selectivity for O=C1CC(Cn2cc(Nc3ncc4cnn(Cc5cc(F)cc(N6CCOCC6=O)c5)c4n3)cn2)CN1 (centres unmarked)
>50 Fold

Form field: reported JAK3/AurB Fold Selectivity of CN(C)CCCn1cc(Nc2ncc3cnn(Cc4cccc(N5CCOCC5)c4)c3n2)cn1
>50 Fold

Which measured JAK3/AurB Fold Selectivity value corresponds to Cn1cc(Nc2ncc3cnn(Cc4cccc(N5CCNCC5=O)c4F)c3n2)cn1 ?
>50 Fold

Item under review: O=C1COCCN1c1cccc(Cn2ncc3cnc(Nc4cnn(CCO)c4)nc32)c1 . Reported JAK3/AurB Fold Selectivity?
10-50 Fold

Next item in the queue.
Value lookup for JAK3/AurB Fold Selectivity; key = Cn1cc(Nc2ncc3cnn(Cc4cccc(N5CCOCC5O)c4)c3n2)cn1 (centres unmarked)
>50 Fold
